Measured metabolised at 4 h, 0.1 mg/mL, listed per entry for reference.
test system: human plasma proteases; test: in vitro
Where a SMILES comes first, the peptide text is derived from it. [ ]: non-standard residue; d: D form. hArg = N=C(N)NCCCC[C@H](N)C(=O)O; 2Thi = N[C@@H](Cc1cccs1)C(=O)O
readout: metabolised at 4 h, 0.1 mg/mL

[
  {
    "molecule": "CC(C)C[C@H](NC(=O)[C@H](Cc1ccc(O)cc1)NC(=O)[C@H](CCCCN)NC(=O)[C@H](CC(C)C)NC(=O)[C@H](CC(C)C)NC(=O)[C@@H](CCCCN)NC(=O)[C@@H](CCCCN)NC(=O)[C@H](Cc1ccccc1)NC(=O)[C@H](CC(C)C)NC(=O)[C@@H](CCCNC(=N)N)NC(=O)[C@H](N)CCCCN)C(=O)N[C@@H](CCCNC(=N)N)C(=O)N[C@H](CCCCN)C(=O)N[C@@H](Cc1ccccc1)C(N)=O [DP05] (H-[dK][dR]LF[dK][dK]LLKYLR[dK]F-NH2)",
    "study target": "human plasma proteases",
    "readout": "metabolised at 4 h, 0.1 mg/mL",
    "recorded measurement": "> 50%"
  },
  {
    "molecule": "CC(C)C[C@H](NC(=O)[C@H](Cc1ccc(O)cc1)NC(=O)[C@H](CCCCN)NC(=O)[C@H](CC(C)C)NC(=O)[C@H](CC(C)C)NC(=O)[C@H](CCCCN)NC(=O)[C@H](CCCCN)NC(=O)[C@H](Cc1ccccc1)NC(=O)[C@H](CC(C)C)NC(=O)[C@H](CCCNC(=N)N)NC(=O)[C@@H](N)CCCCNC(=N)N)C(=O)N[C@@H](CCCNC(=N)N)C(=O)N[C@@H](CCCCN)C(=O)N[C@@H](Cc1cccs1)C(N)=O [UP10] (H-[hArg]RLFKKLLKYLRK[2Thi]-NH2)",
    "study target": "human plasma proteases",
    "readout": "metabolised at 4 h, 0.1 mg/mL",
    "recorded measurement": "> 50%"
  }
]
